# Tested on: Staphylococcus aureus
# experimental protocol: Antibacterial activity against Staphylococcus aureus ATCC 25930 after 24 hrs by two fold serial dilution method
# Format: functional
# measurement conditions: ATCC 25930, 24 h

{"columns": ["compound", "target entity", "units text", "MIC"],
 "data": [
  ["C=CCN1[C@H](c2ccc(OC)cc2)CC(=O)[C@@H](C)[C@@H]1c1ccc(OC)cc1 (relative stereo)", "Staphylococcus aureus", "µg/mL", 100],
  ["C=CCN1[C@@H](c2ccccc2)C(C)(C)/C(=N/O)C[C@H]1c1ccccc1 (relative stereo)", "Staphylococcus aureus", "µg/mL", 12.5],
  ["C=CCN1[C@H](c2ccc(C)cc2)C/C(=N\\OCc2ccccc2)[C@@H](C)[C@@H]1c1ccc(C)cc1 (relative stereo)", "Staphylococcus aureus", "µg/mL", 100],
  ["C=CCN1[C@@H](c2ccccc2)C(C)(C)C(=O)C[C@H]1c1ccccc1 (relative stereo)", "Staphylococcus aureus", "µg/mL", 25],
  ["C=CCN1[C@H](c2ccccc2)C/C(=N\\O)[C@@H](CC)[C@@H]1c1ccccc1 (relative stereo)", "Staphylococcus aureus", "µg/mL", 25],
  ["C=CCN1[C@@H](c2ccccc2)CC(=O)C[C@H]1c1ccccc1", "Staphylococcus aureus", "µg/mL", 6.25],
  ["C=CCN1[C@H](c2ccccc2)[C@@H](C)/C(=N/OCc2ccccc2)[C@@H](C)[C@@H]1c1ccccc1 (relative stereo)", "Staphylococcus aureus", "µg/mL", 12.5],
  ["CN[C@@H]1[C@H](O[C@H]2[C@H](O[C@H]3[C@H](O)[C@@H](O)[C@H](N=C(N)N)[C@@H](O)[C@@H]3N=C(N)N)O[C@@H](C)[C@]2(O)C=O)O[C@@H](CO)[C@H](O)[C@H]1O [STREPTOMYCIN]", "Staphylococcus aureus", "µg/mL", 50],
  ["C=CCN1[C@H](c2ccc(Cl)cc2)C/C(=N\\OCc2ccccc2)[C@@H](C)[C@@H]1c1ccc(Cl)cc1 (relative stereo)", "Staphylococcus aureus", "µg/mL", 6.25],
  ["C=CCN1[C@H](c2ccc(C)cc2)C/C(=N\\O)[C@@H](C)[C@@H]1c1ccc(C)cc1 (relative stereo)", "Staphylococcus aureus", "µg/mL", 200],
  ["C=CCN1[C@H](c2ccc(C)cc2)CC(=O)[C@@H](C)[C@@H]1c1ccc(C)cc1 (relative stereo)", "Staphylococcus aureus", "µg/mL", 50],
  ["C=CCN1[C@H](c2ccc(Cl)cc2)CC(=O)[C@@H](C)[C@@H]1c1ccc(Cl)cc1 (relative stereo)", "Staphylococcus aureus", "µg/mL", 25],
  ["C=CCN1[C@H](c2ccc(Cl)cc2)C/C(=N\\O)[C@@H](C)[C@@H]1c1ccc(Cl)cc1 (relative stereo)", "Staphylococcus aureus", "µg/mL", 6.25],
  ["C=CCN1[C@H](c2ccc(OC)cc2)C/C(=N\\O)[C@@H](C)[C@@H]1c1ccc(OC)cc1 (relative stereo)", "Staphylococcus aureus", "µg/mL", 25],
  ["C=CCN1[C@H](c2ccccc2)[C@@H](C)/C(=N/O)[C@@H](C)[C@@H]1c1ccccc1 (relative stereo)", "Staphylococcus aureus", "µg/mL", 50],
  ["C=CCN1[C@H](c2ccccc2)C/C(=N\\O)[C@@H](C)[C@@H]1c1ccccc1 (relative stereo)", "Staphylococcus aureus", "µg/mL", 100],
  ["C=CCN1[C@H](c2ccccc2)CC(=O)[C@@H](CC)[C@@H]1c1ccccc1 (relative stereo)", "Staphylococcus aureus", "µg/mL", 100],
  ["C=CCN1[C@H](c2ccccc2)CC(=O)[C@@H](C)[C@@H]1c1ccccc1 (relative stereo)", "Staphylococcus aureus", "µg/mL", 100],
  ["C=CCN1[C@H](c2ccccc2)[C@@H](C)C(=O)[C@@H](C)[C@@H]1c1ccccc1", "Staphylococcus aureus", "µg/mL", 12.5],
  ["C=CCN1[C@H](c2ccccc2)C/C(=N\\OCc2ccccc2)[C@@H](C)[C@@H]1c1ccccc1 (relative stereo)", "Staphylococcus aureus", "µg/mL", 50],
  ["C=CCN1[C@@H](c2ccccc2)C/C(=N/O)C[C@H]1c1ccccc1 (relative stereo)", "Staphylococcus aureus", "µg/mL", 50],
  ["C=CCN1[C@@H](c2ccccc2)C(C)(C)/C(=N/OCc2ccccc2)C[C@H]1c1ccccc1 (relative stereo)", "Staphylococcus aureus", "µg/mL", 50],
  ["C=CCN1[C@H](c2ccccc2)C/C(=N\\OCc2ccccc2)[C@@H](CC)[C@@H]1c1ccccc1 (relative stereo)", "Staphylococcus aureus", "µg/mL", 200],
  ["C=CCN1[C@@H](c2ccccc2)C/C(=N/OCc2ccccc2)C[C@H]1c1ccccc1 (relative stereo)", "Staphylococcus aureus", "µg/mL", 50],
  ["C=CCN1[C@H](c2ccc(OC)cc2)C/C(=N\\OCc2ccccc2)[C@@H](C)[C@@H]1c1ccc(OC)cc1 (relative stereo)", "Staphylococcus aureus", "µg/mL", 12.5]
]}

----------
# Tested on: Rhizopus
# experimental protocol: Antifungal activity against Rhizopus sp. ATCC 2842 after 72 to 96 hrs by two fold serial dilution method
# Type: functional
measure name: MIC (µg/mL)

{"columns": ["molecule", "target entity", "measure name", "value observed"],
 "data": [
  ["C=CCN1[C@H](c2ccccc2)[C@@H](C)/C(=N/O)[C@@H](C)[C@@H]1c1ccccc1 (relative stereo)", "Rhizopus", "MIC", 200],
  ["C=CCN1[C@H](c2ccc(C)cc2)C/C(=N\\OCc2ccccc2)[C@@H](C)[C@@H]1c1ccc(C)cc1 (relative stereo)", "Rhizopus", "MIC", 50],
  ["C=CCN1[C@H](c2ccc(Cl)cc2)CC(=O)[C@@H](C)[C@@H]1c1ccc(Cl)cc1 (relative stereo)", "Rhizopus", "MIC", 25],
  ["C=CCN1[C@@H](c2ccccc2)C(C)(C)/C(=N/OCc2ccccc2)C[C@H]1c1ccccc1 (relative stereo)", "Rhizopus", "MIC", 50],
  ["C=CCN1[C@@H](c2ccccc2)C/C(=N/OCc2ccccc2)C[C@H]1c1ccccc1 (relative stereo)", "Rhizopus", "MIC", 50],
  ["C=CCN1[C@H](c2ccc(Cl)cc2)C/C(=N\\OCc2ccccc2)[C@@H](C)[C@@H]1c1ccc(Cl)cc1 (relative stereo)", "Rhizopus", "MIC", 6.25],
  ["C=CCN1[C@H](c2ccccc2)C/C(=N\\O)[C@@H](C)[C@@H]1c1ccccc1 (relative stereo)", "Rhizopus", "MIC", 25],
  ["C=CCN1[C@@H](c2ccccc2)CC(=O)C[C@H]1c1ccccc1", "Rhizopus", "MIC", 50]
]}

----------
# System: Rhizopus
# experimental protocol: Antifungal activity against Rhizopus sp. ATCC 2842 after 72 to 96 hrs by two fold serial dilution method
# Assay type: functional
Parameter: MIC. Scope: all listed entries.
measure name: MIC (µg/mL)

{"columns": ["compound", "value observed"],
 "data": [
  ["C[C@@H]1[C@H](O)[C@@H](C)/C=C/C=C/C=C/C=C/C=C/C=C/C=C/[C@H](O[C@@H]2O[C@H](C)[C@@H](O)[C@H](N)[C@@H]2O)C[C@@H]2O[C@](O)(C[C@@H](O)C[C@@H](O)[C@H](O)CC[C@@H](O)C[C@@H](O)CC(=O)O[C@H]1C)C[C@H](O)[C@H]2C(=O)O", 25],
  ["C=CCN1[C@H](c2ccc(C)cc2)C/C(=N\\O)[C@@H](C)[C@@H]1c1ccc(C)cc1 (relative stereo)", 100],
  ["C=CCN1[C@H](c2ccc(OC)cc2)CC(=O)[C@@H](C)[C@@H]1c1ccc(OC)cc1 (relative stereo)", 25],
  ["C=CCN1[C@H](c2ccccc2)[C@@H](C)C(=O)[C@@H](C)[C@@H]1c1ccccc1", 200],
  ["C=CCN1[C@H](c2ccc(C)cc2)CC(=O)[C@@H](C)[C@@H]1c1ccc(C)cc1 (relative stereo)", 6.25],
  ["C=CCN1[C@@H](c2ccccc2)C(C)(C)C(=O)C[C@H]1c1ccccc1 (relative stereo)", 100],
  ["C=CCN1[C@@H](c2ccccc2)C/C(=N/O)C[C@H]1c1ccccc1 (relative stereo)", 25],
  ["C=CCN1[C@H](c2ccccc2)C/C(=N\\O)[C@@H](CC)[C@@H]1c1ccccc1 (relative stereo)", 50],
  ["C=CCN1[C@H](c2ccccc2)CC(=O)[C@@H](CC)[C@@H]1c1ccccc1 (relative stereo)", 12.5],
  ["C=CCN1[C@H](c2ccccc2)[C@@H](C)/C(=N/OCc2ccccc2)[C@@H](C)[C@@H]1c1ccccc1 (relative stereo)", 100],
  ["C=CCN1[C@H](c2ccccc2)CC(=O)[C@@H](C)[C@@H]1c1ccccc1 (relative stereo)", 200],
  ["C=CCN1[C@@H](c2ccccc2)C(C)(C)/C(=N/O)C[C@H]1c1ccccc1 (relative stereo)", 25],
  ["C=CCN1[C@H](c2ccccc2)C/C(=N\\OCc2ccccc2)[C@@H](CC)[C@@H]1c1ccccc1 (relative stereo)", 12.5],
  ["C=CCN1[C@H](c2ccc(OC)cc2)C/C(=N\\O)[C@@H](C)[C@@H]1c1ccc(OC)cc1 (relative stereo)", 25]
]}

Taken from ChEMBL document CHEMBL2157909.
